assay: chemical genetic growth profiling, strain panel (AID 1159580);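 further: tested at 20 µM; growth read once vehicle control cultures reached saturation at 30 °C; 1 = growth at the plate median or of vehicle wells; lower values mean less growth of the strain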; conditions: S. cerevisiae deletion strains, growth OD, locus YBR023C, strain chs3
About 2,000 (36%) of roughly 5,500 compounds were called active. Not shown: some 18% with an inconclusive outcome. No stated cut-off is given here; in the data, active means normalized growth mostly below about 0.91 (no sharp cut-off); inconclusive means no clear call, values can overlap the other calls; inactive means mostly above about 0.92. The list shows a part of the results.
Outcome codes: active, inactive

compound: CC(=O)N[C@@H](Cc1c[nH]c2ccccc12)C(N)=O
class.assignment: inactive

compound: O=C(O)c1cccnc1
class.assignment: inactive

compound: CC(=O)OCC(=O)[C@@]1(O)[C@H](C)CC2C3CCC4=CC(=O)C=C[C@]4(C)[C@@]3(F)[C@@H](O)C[C@@]21C (stereo partly specified)
class.assignment: inactive

compound: NC(=O)NC(=O)Cc1ccccc1
class.assignment: inactive

compound: CC(=O)Oc1ccc(/C=C/c2cc(OC(C)=O)cc(OC(C)=O)c2)cc1
class.assignment: inactive

compound: NC(Cn1ccc(=O)c(O)c1)C(=O)O (stereo unspecified)
class.assignment: inactive

compound: NC(=O)c1cccnc1
class.assignment: inactive

compound: O=C(O)c1ccc(S(=O)(=O)N(Cl)Cl)cc1
class.assignment: inactive

compound: COc1ccc([C@@H]2CC(=O)c3c(O)cc(O[C@@H]4O[C@H](CO[C@H]5O[C@@H](C)[C@H](O)[C@@H](O)[C@H]5O)[C@@H](O)[C@H](O)[C@H]4O)cc3O2)cc1O
class.assignment: inactive

compound: CC(=O)Nc1ccc(S(=O)(=O)Nc2onc(C)c2C)cc1
class.assignment: inactive

compound: N[C@@H](CCC(=O)N[C@@H](CS)C(=O)NCC(=O)O)C(=O)O
class.assignment: inactive

compound: NC1=NCCN1CC(=O)O
class.assignment: inactive

compound: CC(=O)Oc1ccc(O)cc1
class.assignment: inactive

compound: CCOC(=O)NNc1nncc2ccccc12
class.assignment: inactive

compound: NCC(N)C(=O)c1ccccc1 (stereo unspecified)
class.assignment: inactive

compound: O=C(CC(=O)c1ccccc1)c1ccccc1
class.assignment: active

compound: CC[N+](C)(C)c1cccc(O)c1
class.assignment: inactive

compound: CS(=O)(=O)Nc1ccc([N+](=O)[O-])cc1Oc1ccccc1
class.assignment: inactive

compound: Cc1cc(=O)oc2cc(O)cc(O)c12
class.assignment: inactive

compound: CC(C)CCCC(C)C1CCC2C3CC(=O)[C@H]4C[C@@H](O)CC[C@]4(C)C3CC[C@]12C (stereo partly specified)
class.assignment: inactive

compound: CCCN(CCC)S(=O)(=O)c1ccc(C(=O)O)cc1
class.assignment: inactive

compound: Cc1cc(=O)[nH]c(=S)[nH]1
class.assignment: inactive

compound: O=C(OCc1ccccc1)c1ccccc1
class.assignment: inactive

compound: O=C(OOC(=O)c1ccccc1)c1ccccc1
class.assignment: inactive

compound: CC12CCC3C(CC3(C)C)C(C)(CCC1=O)O2 (stereo unspecified)
class.assignment: inactive

compound: CC1(C)CC2C1CC[C@]1(C)CCC3C(C(=O)O)CC(=O)O[C@@]32C1 (stereo partly specified)
class.assignment: inactive

* * *

assay: chemical genetic growth profiling, strain panel (AID 1159580);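 further: tested at 20 µM; growth read once vehicle control cultures reached saturation at 30 °C; 1 = growth at the plate median or of vehicle wells; lower values mean less growth of the strain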; details: S. cerevisiae deletion strains, growth OD, locus YFR010W, strain ubp6, hits give low values
Out of some 5,500 compounds screened, about 2,000 (36%) were called active. Another 18% or so got no clear call; they are omitted. This is one part of the list.

compound: CC1(C)CC2C1CC[C@]1(C)CCC3C(C(=O)O)CC(=O)O[C@@]32C1 (stereo partly specified)
normalized growth: 1.09 (inactive)

compound: NS(=O)(=O)c1cc2c(cc1Cl)NC(CSCc1ccccc1)=NS2(=O)=O
normalized growth: 1.03 (inactive)

compound: CC(C)(C)NC[C@H](O)c1ccc(O)c(CO)c1
normalized growth: 1.02 (inactive)

compound: CC1=CC(=O)c2c(O)cccc2C1=O
normalized growth: 0.0636 (active)

compound: COC(=O)c1c(OC)cc2c(c1C)Oc1c(Cl)c(O)c(Cl)c(C)c1C(=O)O2
normalized growth: 0.982 (inactive)

compound: CC(C)CCCC(C)C1CCC2C3CC(=O)[C@H]4C[C@@H](O)CC[C@]4(C)C3CC[C@]12C (stereo partly specified)
normalized growth: 1.02 (inactive)

compound: CC(=O)c1ccc(O)c(CC=C(C)C)c1
normalized growth: 0.952 (inactive)

compound: CC(C)CCCC(C)C1CCC2C3C[C@@H](O)[C@@]4(O)C[C@@H](O)CC[C@]4(C)C3CC[C@]12C (stereo partly specified)
normalized growth: 1 (inactive)

compound: COc1ccc2cc(CCC(C)=O)ccc2c1
normalized growth: 1.01 (inactive)

compound: CCC(C)[C@H]1O[C@]2(C=C[C@@H]1C)C[C@@H]1C[C@@H](C/C=C(\C)[C@@H](OC3C[C@H](OC)C(O[C@H]4C[C@H](OC)[C@@H](O)[C@H](C)O4)[C@H](C)O3)[C@@H](C)/C=C/C=C3\CO[C@@H]4[C@H](O)C(C)=C[C@@H](C(=O)O1)[C@]34O)O2 (stereo partly specified)
normalized growth: 1 (inactive)

compound: Cc1nc(N)cc(C[n+]2csc(CCO)c2C)n1
normalized growth: 0.962 (inactive)

compound: C[C@H](CCC(=O)O)[C@H]1CCC2C3C(=O)CC4CC(=O)CC[C@]4(C)C3CC(=O)[C@@]21C (stereo partly specified)
normalized growth: 0.965 (inactive)

compound: CN(C)[C@@H]1C(=O)C(C(=O)NCN2CCCC2)=C(O)[C@@]2(O)C(=O)C3=C(O)c4c(O)cccc4[C@@](C)(O)[C@H]3C[C@@H]12
normalized growth: 0.985 (inactive)

compound: CC(C)c1ccc2c(c1)CCC1[C@](C)(CN)CCC[C@]21C (stereo partly specified)
normalized growth: 0.811 (active)

compound: CCOC(=O)NNc1nncc2ccccc12
normalized growth: 0.979 (inactive)

compound: CC12CCC(=O)C=C1CCC1C2[C@@H](O)CC2(C)C1CC[C@]2(O)C(=O)COP(=O)(O)O (stereo partly specified)
normalized growth: 1.01 (inactive)

compound: CC(C)C[C@@H](CN)CC(=O)O
normalized growth: 1.01 (inactive)

compound: CC(C)CCCC(C)[C@H]1CCC2C3CC=C4C[C@@H](O)CC[C@]4(C)C3CC[C@@]21C (stereo partly specified)
normalized growth: 0.961 (inactive)

compound: CN[C@@H]1[C@H](O)[C@H](NC)[C@H]2O[C@@]3(O)C(=O)C[C@@H](C)O[C@H]3O[C@@H]2[C@H]1O
normalized growth: 1.02 (inactive)

compound: CNCCCC12CCC(c3ccccc31)c1ccccc12
normalized growth: 0.982 (inactive)

compound: CC(=O)c1cc(CC=C(C)C)c(O)c(CC=C(C)C)c1
normalized growth: 1.01 (inactive)

compound: COc1ccccc1OCC(O)CO (stereo unspecified)
normalized growth: 1.02 (inactive)

compound: CC(C)CCCC(C)C1CCC2C3=CC[C@H]4C[C@@H](O)CC[C@]4(C)C3CC[C@@]21C (stereo partly specified)
normalized growth: 0.983 (inactive)

compound: CC(C)c1ccc2c(c1)CCC1C(C)(C(N)=O)CCCC21C (stereo unspecified)
normalized growth: 0.957 (inactive)

compound: CC1=CC(=O)c2ccccc2C1=O
normalized growth: 0.989 (inactive)

compound: CS(=O)(=O)c1ccc([C@@H](O)[C@@H](CO)NC(=O)C(Cl)Cl)cc1
normalized growth: 1.02 (inactive)

compound: CC1(C)CC2C1CC[C@]1(CBr)CCC3C(CC(=O)O)C(=O)O[C@@]32C1 (stereo partly specified)
normalized growth: 1.01 (inactive)

compound: Cc1cc(=O)oc2cc(O)cc(O)c12
normalized growth: 0.943 (inactive)

compound: COc1cc(C(C)=O)cc(OC)c1O
normalized growth: 1.03 (inactive)

compound: CC1=CCCC2C1(C)CCC(C)C2(C)CC/C(C)=C/C[n+]1cn(C)c2c(N)ncnc21 (stereo unspecified)
normalized growth: 0.996 (inactive)

compound: O=C1NC(O)=NC1(c1ccccc1)c1ccccc1
normalized growth: 1.01 (inactive)

* * *

assay: chemical genetic growth profiling, strain panel (AID 1159580);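 further: tested at 20 µM; growth read once vehicle control cultures reached saturation at 30 °C; 1 = growth at the plate median or of vehicle wells; lower values mean less growth of the strain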; settings: S. cerevisiae deletion strains, growth OD, locus YKL068W, hits give low values
Hit rate of the full screen: of about 5,500 compounds, about 2,000 (36%) were called active. Roughly 18% stayed inconclusive and do not appear here. Some of the results follow.
quantity.kind: normalized growth

compound: CC(C)CC(NC(=O)OCC1c2ccccc2-c2ccccc21)C(=O)O (stereo not drawn)
experimental.result: 0.997

compound: C=C1c2c(Cl)ccc(O)c2C(O)=C2C(=O)[C@]3(O)C(O)=C(C(N)=O)C(=O)[C@@H](N(C)C)[C@@H]3[C@@H](O)[C@H]12
experimental.result: 0.989

compound: CNNC
experimental.result: 1.01

compound: CC(C)CCCC(C)C1CCC2C3CC(=O)[C@H]4C[C@@H](O)CC[C@]4(C)C3CC[C@]12C (stereo partly drawn)
experimental.result: 1.02

compound: NC(=O)NC(=O)Cc1ccccc1
experimental.result: 0.998

compound: CC(C)CCCC(C)[C@H]1CCC2C3CC=C4C[C@@H](O)CC[C@]4(C)C3CC[C@@]21C (stereo partly drawn)
experimental.result: 1

compound: CO[C@H]1CC(O[C@@H]2/C(C)=C/C[C@@H]3C[C@@H](C[C@]4(CC[C@H](C)[C@@H](C5CCCCC5)O4)O3)OC(=O)[C@@H]3C=C(C)/C(=N\O)[C@H]4OC/C(=C\C=C\[C@@H]2C)[C@]43O)O[C@@H](C)C1O (stereo partly drawn)
experimental.result: 1

compound: NS(=O)(=O)c1cc2c(cc1Cl)NC(CSCc1ccccc1)=NS2(=O)=O
experimental.result: 0.988

compound: O=C1NC(O)=NC1(c1ccccc1)c1ccccc1
experimental.result: 1.02

compound: CC(=O)O[C@H]1CC[C@@]2(C)C(=CC(=O)C3C4CCC(C(C)CCCC(C)C)[C@@]4(C)CCC32)C1 (stereo partly drawn)
experimental.result: 1

compound: Cc1cc(=O)[nH]c(=S)[nH]1
experimental.result: 1

compound: C[C@H]1c2cccc(O)c2C(O)=C2C(=O)[C@]3(O)C(O)=C(C(N)=O)C(=O)[C@@H](N(C)C)[C@@H]3[C@@H](O)[C@@H]21
experimental.result: 0.986

compound: COc1ccc(C2Sc3ccccc3N(CCN(C)C)C(=O)C2OC(C)=O)cc1 (stereo not drawn)
experimental.result: 1.02

compound: CC12CCC(O)CC1CCC1C2[C@H](O)CC2(C)C(C3=CC(=O)OC3)CCC12O (stereo partly drawn)
experimental.result: 1

compound: O=P1(N(CCCl)CCCl)NCCCO1 (stereo not drawn)
experimental.result: 1

compound: CN(C)CCCN1c2ccccc2Sc2ccc(C(F)(F)F)cc21
experimental.result: 0.991

compound: CN(C)CCCN1c2ccccc2Sc2ccccc21
experimental.result: 1.01

compound: CC(=O)N[C@@H](Cc1c[nH]c2ccccc12)C(N)=O
experimental.result: 0.988

compound: CC(C)CCCC(C)[C@H]1CCC2C3CC=C4CC(=O)CC[C@]4(C)C3CC[C@@]21C (stereo partly drawn)
experimental.result: 0.993

compound: CN(C)CCCN1c2ccccc2CCc2ccc(Cl)cc21
experimental.result: 0.991

compound: CN(C)CCCN1c2ccccc2Sc2ccc(Cl)cc21
experimental.result: 1.01

compound: C/C1=C\CC(C)(C)/C=C/CC2(C)OC2CC1 (stereo not drawn)
experimental.result: 1

compound: CC(CCC(=O)O)[C@H]1CCC2C3CC[C@@H]4CC(=O)CC[C@]4(C)C3C=C[C@@]21C (stereo partly drawn)
experimental.result: 1.04

compound: C[n+]1ccccc1/C=N/O
experimental.result: 1.01

compound: CCN(CC)CCOC(=O)C(c1ccccc1)C1CCCCC1 (stereo not drawn)
experimental.result: 0.978

compound: CC(C)CCCC(C)C1CCC2C3CC[C@H]4C[C@@H](O)CC[C@]4(C)C3CC[C@]12C (stereo partly drawn)
experimental.result: 0.999

compound: C=C(C)C1CCC(C)(O)C2CC3OC3(C)C2C1 (stereo not drawn)
experimental.result: 1.01

compound: CNCCCC12CCC(c3ccccc31)c1ccccc12
experimental.result: 0.983

compound: CN(C)CCCN1c2ccccc2CCc2ccccc21
experimental.result: 0.992

compound: NCC(N)C(=O)c1ccccc1 (stereo not drawn)
experimental.result: 1.03

compound: CC(C)CCCC(C)[C@H]1CCC2C3C(=O)C=C4C[C@@H](O)CC[C@]4(C)C3CC[C@@]21C (stereo partly drawn)
experimental.result: 1.01

compound: C/C1=C/CC(C)(C)/C=C/C/C(C)=C/CC1
experimental.result: 0.991

compound: CC(C)CCCC(C)C1CCC2C3C[C@@H](O)[C@@]4(O)C[C@@H](O)CC[C@]4(C)C3CC[C@]12C (stereo partly drawn)
experimental.result: 1.01
